Molecular target: Human CD137 ECD (human)
Sequence (chain, as listed by the source limits assumed): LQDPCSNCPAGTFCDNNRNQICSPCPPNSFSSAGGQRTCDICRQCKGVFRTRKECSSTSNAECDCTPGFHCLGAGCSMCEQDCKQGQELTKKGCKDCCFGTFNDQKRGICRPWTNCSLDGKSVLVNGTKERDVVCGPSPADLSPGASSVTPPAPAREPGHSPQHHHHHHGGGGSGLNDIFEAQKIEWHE
Assay: SPR, vs parent H183/L072
QUANTITY: fold change of affinity (fold)

{"BINDER": "dBBDu183H V100iQ / dBBDu072L (antibody, name in Kabat numbering, V domains shown) VH: QVQLVESGGGLVQPGRSLRLSCAASGFTFSNAWMHWVRQAPGKGLEWVAQIKDKGNAYAAYYAPSVKGRFTISRDDSKNSIYLQMNSLKTEDTAVYYCHYVHYASASTVLPAFGQDAWGQGTTVTVSS VL: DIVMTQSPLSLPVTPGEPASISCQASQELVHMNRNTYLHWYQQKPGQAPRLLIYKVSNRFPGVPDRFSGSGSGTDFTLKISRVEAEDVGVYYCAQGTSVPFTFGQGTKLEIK", "RESULT UNITS": "fold", "VALUE MEASURED": 0}
{"BINDER": "dBBDu183H A100D / dBBDu072L (antibody, name in Kabat numbering, V domains shown) VH: QVQLVESGGGLVQPGRSLRLSCAASGFTFSNAWMHWVRQAPGKGLEWVAQIKDKGNAYAAYYAPSVKGRFTISRDDSKNSIYLQMNSLKTEDTAVYYCHYVHYASDSTVLPAFGVDAWGQGTTVTVSS VL: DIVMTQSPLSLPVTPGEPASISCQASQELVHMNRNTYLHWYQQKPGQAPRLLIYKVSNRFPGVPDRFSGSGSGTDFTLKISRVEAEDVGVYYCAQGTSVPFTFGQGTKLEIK", "RESULT UNITS": "fold", "VALUE MEASURED": 0}
{"BINDER": "dBBDu183H H93F / dBBDu072L (antibody, name in Kabat numbering, V domains shown) VH: QVQLVESGGGLVQPGRSLRLSCAASGFTFSNAWMHWVRQAPGKGLEWVAQIKDKGNAYAAYYAPSVKGRFTISRDDSKNSIYLQMNSLKTEDTAVYYCFYVHYASASTVLPAFGVDAWGQGTTVTVSS VL: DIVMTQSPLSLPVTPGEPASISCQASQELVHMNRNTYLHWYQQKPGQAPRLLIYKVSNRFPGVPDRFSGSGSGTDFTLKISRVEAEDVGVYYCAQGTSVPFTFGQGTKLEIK", "RESULT UNITS": "fold", "VALUE MEASURED": 0}
{"BINDER": "dBBDu183H A98F / dBBDu072L (antibody, name in Kabat numbering, V domains shown) VH: QVQLVESGGGLVQPGRSLRLSCAASGFTFSNAWMHWVRQAPGKGLEWVAQIKDKGNAYAAYYAPSVKGRFTISRDDSKNSIYLQMNSLKTEDTAVYYCHYVHYFSASTVLPAFGVDAWGQGTTVTVSS VL: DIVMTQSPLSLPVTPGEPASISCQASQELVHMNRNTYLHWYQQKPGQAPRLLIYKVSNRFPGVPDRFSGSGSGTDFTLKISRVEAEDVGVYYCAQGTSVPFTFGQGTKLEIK", "RESULT UNITS": "fold", "VALUE MEASURED": 0}
{"BINDER": "dBBDu183H F100gN / dBBDu072L (antibody, name in Kabat numbering, V domains shown) VH: QVQLVESGGGLVQPGRSLRLSCAASGFTFSNAWMHWVRQAPGKGLEWVAQIKDKGNAYAAYYAPSVKGRFTISRDDSKNSIYLQMNSLKTEDTAVYYCHYVHYASASTVLPANGVDAWGQGTTVTVSS VL: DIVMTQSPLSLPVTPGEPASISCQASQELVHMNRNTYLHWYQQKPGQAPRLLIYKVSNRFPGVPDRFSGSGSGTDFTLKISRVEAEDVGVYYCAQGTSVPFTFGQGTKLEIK", "RESULT UNITS": "fold", "VALUE MEASURED": 0}
{"BINDER": "dBBDu183H D101W / dBBDu072L (antibody, name in Kabat numbering, V domains shown) VH: QVQLVESGGGLVQPGRSLRLSCAASGFTFSNAWMHWVRQAPGKGLEWVAQIKDKGNAYAAYYAPSVKGRFTISRDDSKNSIYLQMNSLKTEDTAVYYCHYVHYASASTVLPAFGVWAWGQGTTVTVSS VL: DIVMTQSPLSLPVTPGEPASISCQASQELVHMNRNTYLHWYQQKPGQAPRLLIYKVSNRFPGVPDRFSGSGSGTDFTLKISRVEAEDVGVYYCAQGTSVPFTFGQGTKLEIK", "RESULT UNITS": "fold", "VALUE MEASURED": 0}
{"BINDER": "dBBDu183H V95S / dBBDu072L (antibody, name in Kabat numbering, V domains shown) VH: QVQLVESGGGLVQPGRSLRLSCAASGFTFSNAWMHWVRQAPGKGLEWVAQIKDKGNAYAAYYAPSVKGRFTISRDDSKNSIYLQMNSLKTEDTAVYYCHYSHYASASTVLPAFGVDAWGQGTTVTVSS VL: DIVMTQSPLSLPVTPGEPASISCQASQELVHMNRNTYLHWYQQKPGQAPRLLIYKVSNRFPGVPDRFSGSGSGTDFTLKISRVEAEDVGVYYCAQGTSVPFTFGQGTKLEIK", "RESULT UNITS": "fold", "VALUE MEASURED": 0}
{"BINDER": "dBBDu183H H93T / dBBDu072L (antibody, name in Kabat numbering, V domains shown) VH: QVQLVESGGGLVQPGRSLRLSCAASGFTFSNAWMHWVRQAPGKGLEWVAQIKDKGNAYAAYYAPSVKGRFTISRDDSKNSIYLQMNSLKTEDTAVYYCTYVHYASASTVLPAFGVDAWGQGTTVTVSS VL: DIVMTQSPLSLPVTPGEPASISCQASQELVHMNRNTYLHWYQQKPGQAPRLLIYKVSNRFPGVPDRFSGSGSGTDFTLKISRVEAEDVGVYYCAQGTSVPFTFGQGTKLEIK", "RESULT UNITS": "fold", "VALUE MEASURED": 0}
{"BINDER": "dBBDu183H D101V / dBBDu072L (antibody, name in Kabat numbering, V domains shown) VH: QVQLVESGGGLVQPGRSLRLSCAASGFTFSNAWMHWVRQAPGKGLEWVAQIKDKGNAYAAYYAPSVKGRFTISRDDSKNSIYLQMNSLKTEDTAVYYCHYVHYASASTVLPAFGVVAWGQGTTVTVSS VL: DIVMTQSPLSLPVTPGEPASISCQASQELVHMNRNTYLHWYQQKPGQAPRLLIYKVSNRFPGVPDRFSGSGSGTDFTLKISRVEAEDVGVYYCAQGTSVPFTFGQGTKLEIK", "RESULT UNITS": "fold", "VALUE MEASURED": 0}
{"BINDER": "dBBDu183H S100aH / dBBDu072L (antibody, name in Kabat numbering, V domains shown) VH: QVQLVESGGGLVQPGRSLRLSCAASGFTFSNAWMHWVRQAPGKGLEWVAQIKDKGNAYAAYYAPSVKGRFTISRDDSKNSIYLQMNSLKTEDTAVYYCHYVHYASAHTVLPAFGVDAWGQGTTVTVSS VL: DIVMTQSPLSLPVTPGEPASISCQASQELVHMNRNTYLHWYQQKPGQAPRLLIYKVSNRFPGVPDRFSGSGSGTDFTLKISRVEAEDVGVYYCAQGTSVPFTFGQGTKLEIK", "RESULT UNITS": "fold", "VALUE MEASURED": 0}
